tested on: Aspergillus niger; experiment: Antifungal activity against Aspergillus niger assessed as growth inhibition incubated for 72 hrs at 37 degC by broth dilution method; type: functional
Some compounds, each annotated with its measured MIC90.

// known answers, use as guide
{"columns": ["entry-smiles", "MIC90"],
 "data": [
  ["C/C(=N\\Nc1cccc(C)c1)c1cc2c(C)cc(=O)oc2c(/C(C)=N/Nc2cccc(C)c2)c1O", "75 µg/mL"],
  ["Cc1cccc(-n2cc(C=O)c(-c3cc4c(C)cc(=O)oc4c(-c4nn(-c5cccc(C)c5)cc4C=O)c3O)n2)c1", "75 µg/mL"]
]}

Q: Give the measured MIC90 of `Cc1ccc(-n2cc(C=O)c(-c3cc4c(C)cc(=O)oc4c(-c4nn(-c5ccc(C)cc5)cc4C=O)c3O)n2)cc1` .
Result: 50 µg/mL

Q: Give the measured MIC90 of `COc1ccc(N/N=C(\C)c2cc3c(C)cc(=O)oc3c(/C(C)=N/Nc3ccc(OC)cc3)c2O)cc1` .
Result: 12.5 µg/mL

Q: Give the measured MIC90 of `Cc1cc(=O)oc2c(-c3nn(-c4ccc(Cl)cc4)cc3C=O)c(O)c(-c3nn(-c4ccc(Cl)cc4)cc3C=O)cc12` .
Result: 50 µg/mL

Q: Give the measured MIC90 of `OC(Cn1cncn1)(Cn1cncn1)c1ccc(F)cc1F` .
Result: 25 µg/mL

Q: Give the measured MIC90 of `COc1ccc(-n2cc(C=O)c(-c3cc4c(C)cc(=O)oc4c(-c4nn(-c5ccc(OC)cc5)cc4C=O)c3O)n2)cc1` .
Result: 25 µg/mL

Q: Give the measured MIC90 of `C/C(=N\Nc1ccc(C)cc1)c1cc2c(C)cc(=O)oc2c(/C(C)=N/Nc2ccc(C)cc2)c1O` .
Result: 50 µg/mL

Q: Give the measured MIC90 of `C/C(=N\Nc1ccccc1)c1cc2c(C)cc(=O)oc2c(/C(C)=N/Nc2ccccc2)c1O` .
Result: 50 µg/mL

Q: Give the measured MIC90 of `Cc1cc(=O)oc2c(-c3nn(-c4ccccc4)cc3C=O)c(O)c(-c3nn(-c4ccccc4)cc3C=O)cc12` .
Result: 50 µg/mL

Q: Give the measured MIC90 of `C/C(=N\Nc1ccc(Cl)cc1)c1cc2c(C)cc(=O)oc2c(/C(C)=N/Nc2ccc(Cl)cc2)c1O` .
Result: 25 µg/mL

Q: Give the measured MIC90 of `C/C(=N\Nc1ccc(F)cc1)c1cc2c(C)cc(=O)oc2c(/C(C)=N/Nc2ccc(F)cc2)c1O` .
Result: 50 µg/mL

Q: Give the measured MIC90 of `Cc1cc(=O)oc2c(-c3nn(-c4ccc(F)cc4)cc3C=O)c(O)c(-c3nn(-c4ccc(F)cc4)cc3C=O)cc12` .
Result: 75 µg/mL

* * *

assay: Antioxidant activity assessed as DPPH free radical scavenging activity at 75 ug/ml after 20 mins by UV-vis spectrophotometry analysis; type: physicochemical
Some compounds, each annotated with its measured inhibition (INH).
For clarity, give the value followed by its unit.

// known answers, use as guide
{"columns": ["entry-smiles", "inhibition (INH)"],
 "data": [
  ["Cc1cc(=O)oc2c(-c3nn(-c4ccccc4)cc3C=O)c(O)c(-c3nn(-c4ccccc4)cc3C=O)cc12", "20.08%"],
  ["C/C(=N\\Nc1ccc(F)cc1)c1cc2c(C)cc(=O)oc2c(/C(C)=N/Nc2ccc(F)cc2)c1O", "14.01%"]
]}

// next item, inhibition (INH) requested
Q: Give the measured inhibition (INH) of `C/C(=N\Nc1ccccc1)c1cc2c(C)cc(=O)oc2c(/C(C)=N/Nc2ccccc2)c1O` .
Result: 19.35%
